Each entry below carries its reported koff.
- Assay System: T1, recombinant human Ang2-FLD (human, UniProt O15123 275-496, limits assumed)
- T1 construct: domain: FLD; not used
- T1 sequence (looked up): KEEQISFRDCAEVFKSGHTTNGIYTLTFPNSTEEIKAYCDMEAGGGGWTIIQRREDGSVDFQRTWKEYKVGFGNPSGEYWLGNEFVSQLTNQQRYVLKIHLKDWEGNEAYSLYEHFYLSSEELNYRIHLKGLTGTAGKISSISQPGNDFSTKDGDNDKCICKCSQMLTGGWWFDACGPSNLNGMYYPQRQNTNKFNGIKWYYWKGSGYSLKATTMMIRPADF
- Assay Name: SPR (Biacore T100), binder on CM5 chip, Ang2-FLD as analyte
Quantity: koff (s⁻¹)

[
  {
    "Binder": "VHH 11B07 (VHH, also called 011B07; not shown: C-terminal c-myc tag and His6 tag) VHH: EVQLVESGGGLVQVGDSLRLSCAASGRTFSTYLMVGWFRQAPGKEREFAAGIWSSGDTAYADSVRGRFTISRDNAKNTVYLQMNSLKTEDTAVYYCAGSYDGNYYIPGFYKDWGQGTQVTVSS",
    "Numeric Result": 0.062
  },
  {
    "Binder": "VHH 24B05 (VHH, also called 024B05; not shown: C-terminal c-myc tag and His6 tag) VHH: EVQLVESGGGLVQPGGSLRLSCAASGFTLDYYAIGWFRQAPGKEWEGVSCISSSDGSTYYADSVKGRFTISRDNAKNTVYLQMNSLKPEDTAVYYCATDSIVCGSYYGMDYWGKGTQVTVSS",
    "Numeric Result": 0.0025
  },
  {
    "Binder": "VHH 28D10 (VHH, also called 028D10; not shown: C-terminal c-myc tag and His6 tag) VHH: EVQLVESGGGLVQAGGSLRLSCAASGFTLDDYAIGWFRQAPGKEREGVSCIRDSDGSTYYADSVKGRFTISSDNDKNTVYLQMNSLKPEDTAVYYCAAVPAGRLRFGEQWYPLYEYDAWGQGTQVTVSS",
    "Numeric Result": 0.0062
  },
  {
    "Binder": "VHH 10H02 (VHH, also called 010H02; not shown: C-terminal c-myc tag and His6 tag) VHH: EVQLVESGGGSVQAGGSLRLSCAASGFTFDDYAIGWFRQAPGKEREGVSCISSSDGSTNYADSVKGRFTISSDTAKNTVYLQMNSLKPEDTAVYYCTAVPATRRTPQMVDANMCWLAEYEYDYWGQGTQVTVSS",
    "Numeric Result": 0.021
  }
]

Data provenance: patent US20230203146A1
